Assay: Growth inhibition of DLA cells at 500 ug/mL after 3 hrs
Assay type: functional
Settings: Mus musculus
Outcome Measure: inhibition at 500 µg/mL (%)
Please state the figure in %; there is no need to write the unit.

Worked examples, 2 compounds total:
1. Cc1cc2nc(-c3ccc(C(=O)N[C@@H](Cc4cnc[nH]4)C(=O)N[C@@H](Cc4ccc(O)cc4)C(=O)O)cc3)[nH]c2cc1C : 26.3
2. COC(=O)[C@H](CCCNC(=N)N[N+](=O)[O-])NC(=O)[C@@H]1CCCN1C(=O)c1cc(I)c(-c2nc3cc(C)c(C)cc3[nH]2)c(I)c1 : 84.2

Then there is this compound:
Lookup: Given the compound COC(=O)[C@H](Cc1cnc[nH]1)NC(=O)[C@H](Cc1cnc[nH]1)NC(=O)c1cc(-c2nc3cc(C)c(C)cc3[nH]2)ccc1O , what is its reported inhibition at 500 µg/mL?
Found: 36.8

* * *

System: Staphylococcus aureus
Experiment: Antibacterial activity against Staphylococcus aureus NCIM 2079 after 18 hrs by disc diffusion method
Type: functional
Outcome Measure: inhibition zone (IZ) (mm)
Please state the figure in mm; there is no need to write the unit.

Worked examples, 3 molecules total:
1. COC(=O)CNC(=O)CNC(=O)c1cc(-c2nc3ccc([N+](=O)[O-])cc3[nH]2)ccc1O : 9
2. Cc1cc2nc(-c3c(I)cc(C(=O)N[C@@H](Cc4ccccc4)C(=O)N[C@H](C(=O)N4CCC[C@H]4C(=O)O)C(C)C)cc3I)[nH]c2cc1C : 13
3. COC(=O)[C@H](CCCNC(=N)N[N+](=O)[O-])NC(=O)[C@@H]1CCCN1C(=O)c1cc(I)c(-c2nc3cc(C)c(C)cc3[nH]2)c(I)c1 : 12

Lookup: Give the reported inhibition zone (IZ) for COC(=O)[C@@H](NC(=O)c1cc(I)c(-c2nc3cc(C)c(C)cc3[nH]2)c(I)c1)[C@@H](C)O (system: Staphylococcus aureus).
Found: 13

* * *

Assay: Anthelmintic activity against Megascoplex konkanensis ICARBC 211 assessed as mean death time
Type: functional
Residues, ends and D or L forms follow the SMILES beside them. *: point of attachment. X2 = O=C(c1cc(-c2nc3ccc([N+](=O)[O-])cc3[nH]2)ccc1O)*
Collected TIME values appear next to each entry.
# answer = value followed by unit

Worked examples, 3 compounds total:
1. COC(=O)[C@@H]1CCCN1C(=O)c1ccc(-c2nc3cc(C)c(C)cc3[nH]2)cc1 : 0.676 h
2. C[C@H](NC(=O)[C@@H]1CCCN1C(=O)c1cc(-c2nc3ccc([N+](=O)[O-])cc3[nH]2)ccc1O)C(=O)O : 0.585 h
3. CC[C@H](C)[C@H](NC(=O)[C@H](CC(C)C)NC(=O)c1cc(-c2nc3cc(C)c(C)cc3[nH]2)ccc1O)C(=O)OC : 0.569 h

Then there is this compound:
Lookup: Given the compound COC(=O)CNC(=O)[C@H](CC(C)C)NC(=O)[C@@H]1CCCN1C(=O)[C@H](Cc1cnc[nH]1)NC(=O)c1cc(-c2nc3ccc([N+](=O)[O-])cc3[nH]2)ccc1O (X2-HPLG-OMe) , what is its reported TIME?
Found: 0.334 h

* * *

Test: Growth inhibition of DLA cells at 250 ug/mL after 3 hrs
Assay type: functional
Settings: Mus musculus
Residues, ends and D or L forms follow the SMILES beside them. *: point of attachment. X2 = O=C(c1cc(-c2nc3ccc([N+](=O)[O-])cc3[nH]2)ccc1O)*
Lab note: compare inhibition at 250 µg/mL against 30%. Equal or greater, write rule met. Smaller, write rule not met.

Below are worked cases with known answers.
1. C[C@H](NC(=O)[C@@H]1CCCN1C(=O)c1cc(-c2nc3ccc([N+](=O)[O-])cc3[nH]2)ccc1O)C(=O)O : rule not met
2. Cc1cc2nc(-c3c(I)cc(C(=O)N[C@@H](Cc4cnc[nH]4)C(=O)N4CCC[C@H]4C(=O)O)cc3I)[nH]c2cc1C : rule met
3. COC(=O)CNC(=O)[C@H](CC(C)C)NC(=O)[C@@H]1CCCN1C(=O)[C@H](Cc1cnc[nH]1)NC(=O)c1cc(-c2nc3ccc([N+](=O)[O-])cc3[nH]2)ccc1O (X2-HPLG-OMe) : rule met
4. COC(=O)[C@@H]1CCCN1C(=O)c1ccc(-c2nc3cc(C)c(C)cc3[nH]2)cc1 : rule not met

Lookup: Determine whether measured inhibition at 250 µg/mL meets or exceeds 30% for Cc1cc2nc(-c3ccc(C(=O)N[C@@H](Cc4cnc[nH]4)C(=O)N[C@@H](Cc4ccc(O)cc4)C(=O)O)cc3)[nH]c2cc1C
Found: rule not met

Lookup: Determine whether measured inhibition at 250 µg/mL meets or exceeds 30% for COC(=O)[C@H](CCCNC(=N)N[N+](=O)[O-])NC(=O)[C@@H]1CCCN1C(=O)c1cc(I)c(-c2nc3cc(C)c(C)cc3[nH]2)c(I)c1
Found: rule met

* * *

Tested on: Trichophyton benhamiae
Test: Antifungal activity against Trichophyton mentagrophytes MUCC 665 after 48 hrs by disc diffusion method
Type: functional, Arthroderma benhamiae
Residues, ends and D or L forms follow the SMILES beside them. *: point of attachment. X3 = Cc1cc2nc(-c3c(I)cc(C(=O)*)cc3I)[nH]c2cc1C
Collected inhibition zone (IZ) values appear next to each entry.
Please state the figure in mm; there is no need to write the unit.

Worked examples, 5 molecules total:
1. Cc1cc2nc(-c3ccc(C(=O)N[C@@H](CCCNC(=N)N[N+](=O)[O-])C(=O)O)cc3)[nH]c2cc1C : 14
2. COC(=O)[C@H](CCCNC(=N)N[N+](=O)[O-])NC(=O)c1ccc(-c2nc3cc(C)c(C)cc3[nH]2)cc1 : 12
3. Cc1cc2nc(-c3ccc(O)c(C(=O)N[C@@H](C)C(=O)N[C@H](C(=O)N[C@@H](C)C(=O)O)C(C)C)c3)[nH]c2cc1C : 15
4. COC(=O)[C@H](C)NC(=O)[C@@H]1CCCN1C(=O)c1cc(-c2nc3ccc([N+](=O)[O-])cc3[nH]2)ccc1O : 17
5. COC(=O)[C@@H]1CCCN1C(=O)[C@@H]1CCCN1C(=O)[C@@H]1CCCN1C(=O)c1cc(-c2nc3ccc([N+](=O)[O-])cc3[nH]2)ccc1O : 17

Lookup: Give the reported inhibition zone (IZ) for CC[C@H](C)[C@H](NC(=O)CNC(=O)c1cc(I)c(-c2nc3cc(C)c(C)cc3[nH]2)c(I)c1)C(=O)NCC(=O)N[C@H](C(=O)OC)[C@@H](C)O (X3-GIGT-OMe) (system: Trichophyton benhamiae).
Found: 9

Lookup: Give the reported inhibition zone (IZ) for Cc1cc2nc(-c3ccc(C(=O)N[C@@H](CC(C)C)C(=O)NCC(=O)O)cc3)[nH]c2cc1C (system: Trichophyton benhamiae).
Found: 14

* * *

System: Staphylococcus aureus
Assay: Antibacterial activity against Staphylococcus aureus NCIM 2079 after 18 hrs by disc diffusion method
Assay type: functional
Residues, ends and D or L forms follow the SMILES beside them. *: point of attachment. X3 = Cc1cc2nc(-c3c(I)cc(C(=O)*)cc3I)[nH]c2cc1C
Collected inhibition zone (IZ) values appear next to each entry.
# answer = value followed by unit

1. CC[C@H](C)[C@H](NC(=O)[C@H](CC(C)C)NC(=O)c1cc(-c2nc3cc(C)c(C)cc3[nH]2)ccc1O)C(=O)OC : 10 mm

Lookup: Given the compound Cc1cc2nc(-c3ccc(O)c(C(=O)N[C@@H](C)C(=O)N[C@H](C(=O)N[C@@H](C)C(=O)O)C(C)C)c3)[nH]c2cc1C , what is its reported inhibition zone (IZ)?
Found: 11 mm

Lookup: Given the compound COC(=O)[C@@H]1CCCN1C(=O)[C@@H](NC(=O)[C@H](Cc1ccccc1)NC(=O)c1cc(I)c(-c2nc3cc(C)c(C)cc3[nH]2)c(I)c1)C(C)C , what is its reported inhibition zone (IZ)?
Found: 12 mm

Lookup: Given the compound CC[C@H](C)[C@H](NC(=O)CNC(=O)c1cc(I)c(-c2nc3cc(C)c(C)cc3[nH]2)c(I)c1)C(=O)NCC(=O)N[C@H](C(=O)OC)[C@@H](C)O (X3-GIGT-OMe) , what is its reported inhibition zone (IZ)?
Found: 12 mm

Lookup: Given the compound O=C(O)[C@@H]1CCCN1C(=O)[C@@H]1CCCN1C(=O)[C@@H]1CCCN1C(=O)c1cc(-c2nc3ccc([N+](=O)[O-])cc3[nH]2)ccc1O , what is its reported inhibition zone (IZ)?
Found: 11 mm

Lookup: Given the compound COC(=O)[C@H](Cc1c[nH]c2ccccc12)NC(=O)c1cc(I)c(-c2nc3cc(C)c(C)cc3[nH]2)c(I)c1 , what is its reported inhibition zone (IZ)?
Found: 12 mm

Lookup: Given the compound O=C(O)c1cn(C2CC2)c2cc(N3CCNCC3)c(F)cc2c1=O [CIPROFLOXACIN] , what is its reported inhibition zone (IZ)?
Found: 20 mm
